System: Plasmodium berghei
measurement notes: Luciferase/luciferin-expressing antifolate-resistant parasites were used to infect a culture of HepG2 cells that were pre-incubated with compounds. Infected hepatocytes emit light due to the luciferase reaction. Assay results are presented as the percent inhibition of light emission compared to control. […]
Type: functional
measurement conditions: sporozoite, read-out: LUCIFERASE INFECTION ASSAY - IC90
experimental endpoint: IC90 (µM)
Express it in µM; write the number only.

Field: example entries. Status: answers known.
{"columns": ["entry smiles", "recorded number"],
 "data": [
  ["Clc1ccc(SCc2cc(N3CCCC3)nc(-c3ccccn3)n2)cc1", 2.94],
  ["COc1cc(-c2cnc3cnc(-c4ccsc4)cn23)cc(OC)c1OC", 1.45]
]}

Query string: Check the records and state IC90 for `Cn1c(NCc2ccccc2)nc2cnc(Nc3cccc(Oc4ccccc4)c3)cc21`
Result string: 3.9

Query string: Check the records and state IC90 for `O=C(NNC(=S)Nc1ccc(Cl)c(Cl)c1)c1cccn1-c1ccc(F)cc1`
Result string: 5.78

====

System: Plasmodium berghei
measurement notes: Luciferase/luciferin-expressing antifolate-resistant parasites were used to infect a culture of HepG2 cells that were pre-incubated with compounds. Infected hepatocytes emit light due to the luciferase reaction. Assay results are presented as the percent inhibition of light emission compared to control. […]
Format: functional
measurement conditions: sporozoite, PBLUC_HILL_SLOPE 3, PBLUC_R_SQUARED 0.508, read-out: LUCIFERASE INFECTION ASSAY - IC50
experimental endpoint: IC50 (µM)
Express it in µM; write the number only.

Query string: Check the records and state IC50 for `Cc1ccc(-c2nn(-c3ccccc3)cc2CN(C)C(=O)CCNC(=O)c2ccco2)cc1C`
Result string: 5.91

====

System: Plasmodium berghei
measurement notes: Luciferase/luciferin-expressing antifolate-resistant parasites were used to infect a culture of HepG2 cells that were pre-incubated with compounds. Infected hepatocytes emit light due to the luciferase reaction. Assay results are presented as the percent inhibition of light emission compared to control. […]
Format: functional
measurement conditions: sporozoite, PBLUC_HILL_SLOPE 16.6, PBLUC_R_SQUARED 0.0194, read-out: LUCIFERASE INFECTION ASSAY - IC50
experimental endpoint: IC50
Form field: result (number plus unit)

Query string: For Plasmodium berghei, give the measured IC50 of the entry `O=C(Nc1csc([N+](=O)[O-])c1)Nc1ccccc1Cl`
Result string: 11 µM

====

System: Plasmodium berghei
measurement notes: Luciferase/luciferin-expressing antifolate-resistant parasites were used to infect a culture of HepG2 cells that were pre-incubated with compounds. Infected hepatocytes emit light due to the luciferase reaction. Assay results are presented as the percent inhibition of light emission compared to control. […]
Format: functional
measurement conditions: sporozoite, PBLUC_HILL_SLOPE 13.2, PBLUC_R_SQUARED 0.272, read-out: LUCIFERASE INFECTION ASSAY - IC50
experimental endpoint: pIC50
pIC50 (log units): -log10 of the concentration in mol/L.

Query string: Check the records and state pIC50 for `CN(C)Cc1nc(O)c2c(n1)-c1ccccc1CC2(C)C`
Result string: 5.44

====

Test system: Plasmodium berghei
measurement notes: Luciferase/luciferin-expressing antifolate-resistant parasites were used to infect a culture of HepG2 cells that were pre-incubated with compounds. Infected hepatocytes emit light due to the luciferase reaction. Assay results are presented as the percent inhibition of light emission compared to control. […]
Assay type: functional
measurement conditions: sporozoite, FFLUC_HILL_SLOPE 1.36, FFLUC_R_SQUARED 0.795, PBLUC_HILL_SLOPE 11.8, PBLUC_R_SQUARED 0.45, read-out: LUCIFERASE INFECTION ASSAY - IC50
experimental endpoint: pIC50
pIC50 (log units): -log10 of the concentration in mol/L.

Query string: Check the records and state pIC50 for `Cc1ccc(C(=O)Nc2nc3ccccc3[nH]2)cc1F`
Result string: 5.47

====

Test system: Plasmodium berghei
measurement notes: Luciferase/luciferin-expressing antifolate-resistant parasites were used to infect a culture of HepG2 cells that were pre-incubated with compounds. Infected hepatocytes emit light due to the luciferase reaction. Assay results are presented as the percent inhibition of light emission compared to control. […]
Type: functional
measurement conditions: sporozoite, read-out: LUCIFERASE INFECTION ASSAY - IC50
Below, each entry is listed alongside its reported IC50.

{"columns": ["compound", "target desc", "IC50"],
 "data": [
  ["CCNC(=O)C1CCCN(CCOc2ccc(Cl)cc2)CC1 (configuration not stated)", "Plasmodium berghei", "> 10.2 µM"],
  ["N#Cc1cnc2c(Cl)cc(F)cc2c1Cl", "Plasmodium berghei", "> 10 µM"]
]}

Query string: Check the records and state IC50 for `Cc1cc(O)c(CN2CCN(S(=O)(=O)/C=C/c3ccccc3)CC2)cc1C(C)C`
Result string: > 10 µM

Query string: Check the records and state IC50 for Cc1ccc(C(=O)Nc2nc(C(N)Cc3ccccc3)cs2)cc1 (configuration not stated)
Result string: > 9.78 µM

Query string: Check the records and state IC50 for `N#CC(C(=O)COC(=O)COc1cc(Cl)c(Cl)cc1Cl)=C1Nc2ccccc2N1`
Result string: > 10 µM

Query string: Check the records and state IC50 for `O=S(=O)(NCCCCOc1ccc(Cl)cc1)c1ccc(S(=O)(=O)N2CCOCC2)cc1`
Result string: 9.97 µM

Query string: Check the records and state IC50 for `Cc1nc(-c2ccsc2)sc1C(=O)Nc1nc(-c2ccc(NS(C)(=O)=O)cc2)cs1`
Result string: 5.84 µM

====

Test system: Plasmodium berghei
measurement notes: Luciferase/luciferin-expressing antifolate-resistant parasites were used to infect a culture of HepG2 cells that were pre-incubated with compounds. Infected hepatocytes emit light due to the luciferase reaction. Assay results are presented as the percent inhibition of light emission compared to control. […]
Format: functional
measurement conditions: sporozoite, HEPG2TOX_HILL_SLOPE 22.1, HEPG2TOX_R_SQUARED 0.878, PBLUC_HILL_SLOPE 1.59, PBLUC_R_SQUARED 0.529, read-out: LUCIFERASE INFECTION ASSAY - IC50
experimental endpoint: pIC50
pIC50 (log units): -log10 of the concentration in mol/L.

Query string: Check the records and state pIC50 for `Nc1cccc(-c2ccnc3n[nH]c(-c4cccc(Cl)c4)c23)c1`
Result string: 5.75

====

Tested on: Plasmodium berghei
measurement notes: Luciferase/luciferin-expressing antifolate-resistant parasites were used to infect a culture of HepG2 cells that were pre-incubated with compounds. Infected hepatocytes emit light due to the luciferase reaction. Assay results are presented as the percent inhibition of light emission compared to control. […]
Type: functional
measurement conditions: sporozoite, PBLUC_HILL_SLOPE 1.92, PBLUC_R_SQUARED 0.443, read-out: LUCIFERASE INFECTION ASSAY - IC50
experimental endpoint: pIC50
pIC50 (log units): -log10 of the concentration in mol/L.

Query string: Check the records and state pIC50 for Cc1cccc(N2CCN(C(=O)c3cc4ccccc4o3)CC2C)c1 (stereo unspecified)
Result string: 5.32

====

System: Plasmodium berghei
measurement notes: Luciferase/luciferin-expressing antifolate-resistant parasites were used to infect a culture of HepG2 cells that were pre-incubated with compounds. Infected hepatocytes emit light due to the luciferase reaction. Assay results are presented as the percent inhibition of light emission compared to control. […]
Type: functional
measurement conditions: sporozoite, HEPG2TOX_HILL_SLOPE 0.955, HEPG2TOX_R_SQUARED 0.898, PBLUC_HILL_SLOPE 1.96, PBLUC_R_SQUARED 0.521, read-out: LUCIFERASE INFECTION ASSAY - IC50
experimental endpoint: IC50 (nM)
Express it in nM; write the number only.

Query string: Check the records and state IC50 for `CN(C)c1nc2cc(C(=O)Nc3ccccc3OC(F)F)sc2n1-c1ccccc1`
Result string: 803

====

Tested on: Plasmodium berghei
measurement notes: Luciferase/luciferin-expressing antifolate-resistant parasites were used to infect a culture of HepG2 cells that were pre-incubated with compounds. Infected hepatocytes emit light due to the luciferase reaction. Assay results are presented as the percent inhibition of light emission compared to control. […]
Format: functional
measurement conditions: sporozoite, HEPG2TOX_HILL_SLOPE 0.403, HEPG2TOX_R_SQUARED 0.018, read-out: LUCIFERASE INFECTION ASSAY - IC50
pIC50: −log10 of the molar value.
experimental endpoint: pIC50

Query string: Check the records and state pIC50 for `COC(=O)Cc1[nH]n(-c2ccccc2)c(=O)c1C(C)=NCc1cccnc1`
Result string: < 5.04

====

System: Plasmodium berghei
measurement notes: Luciferase/luciferin-expressing antifolate-resistant parasites were used to infect a culture of HepG2 cells that were pre-incubated with compounds. Infected hepatocytes emit light due to the luciferase reaction. Assay results are presented as the percent inhibition of light emission compared to control. […]
Assay type: functional
measurement conditions: sporozoite, HEPG2TOX_HILL_SLOPE 0.453, HEPG2TOX_R_SQUARED 0.728, PBLUC_HILL_SLOPE 2.13, PBLUC_R_SQUARED 0.522, read-out: LUCIFERASE INFECTION ASSAY - IC50
experimental endpoint: pIC50
pIC50 (log units): -log10 of the concentration in mol/L.

Query string: Check the records and state pIC50 for `COCCCNc1nccc2nc(-c3cccc(C(C)C)c3)[nH]c12`
Result string: 5.35
